TARGET: Neuronal acetylcholine receptor; alpha4/beta2 (Homo sapiens) (UniProt P17787+P43681)
ASSAY METHOD TEXT: Partial agonist activity at human alpha4beta2 nAChR expressed in Xenopus oocytes at 10 uM incubated for 8 secs followed by compound washout measured after 241 secs by two-electrode voltage clamp technique
Type: cell-based
The source made the active and inactive calls. No cut-off for these calls is given here.
READOUT NAME: Activity

// below: answered molecules
• O=C(CCc1cccnc1)N1C[C@@H]2CNC[C@@H](C2)C1 = Active
• O=C(Cc1ccncc1)N1C[C@@H]2CNC[C@@H](C2)C1 = Active
• O=C(Cc1ccc2ccccc2c1)N1C[C@@H]2CNC[C@@H](C2)C1 = Active
• O=C(CCc1ccccc1)N1C[C@@H]2CNC[C@@H](C2)C1 = Active
• O=C(c1ccc(-n2ccnc2)cc1)N1C[C@@H]2CNC[C@@H](C2)C1 = Active

Fill in the recorded Activity for this molecule, with Neuronal acetylcholine receptor; alpha4/beta2 (Homo sapiens) (UniProt P17787+P43681) as test system: O=C(/C=C/c1cccc(Cl)c1)N1C[C@@H]2CNC[C@@H](C2)C1 Active

Do the same for COc1ccc(C#CC(=O)N2C[C@@H]3CNC[C@@H](C3)C2)cc1OC please Active

Do the same for O=C(Cc1ccc2c(c1)OCO2)N1C[C@@H]2CNC[C@@H](C2)C1 please Active

Do the same for O=C(Cc1cccnc1)N1C[C@@H]2CNC[C@@H](C2)C1 please Active

Do the same for O=C(/C=C/c1ccncc1)N1C[C@@H]2CNC[C@@H](C2)C1 please Active

Do the same for O=C(/C=C/c1ccc(F)cc1)N1C[C@@H]2CNC[C@@H](C2)C1 please Active

Do the same for O=C(/C=C/c1cccnc1)N1C[C@@H]2CNC[C@@H](C2)C1 please Active

Do the same for O=C(/C=C/c1ccccc1)N1C[C@@H]2CNC[C@@H](C2)C1 please Active
